System: COLO 205 colon
Assay: NCI-60 one-dose screen, 48 h (100 = growth as untreated, 0 = no growth, -100 = all killed)
Settings: 10 µM unless noted
The panel holds about 83,000 compounds, 20% with a hit somewhere; the sample as a whole holds those more often.
Property: growth; scope: individual compounds
Just the number please, in %, no unit attached.

Reference set (5 entries):
>  <Compound>
N#CC1C(=O)c2ccccc2C1c1ccccc1 (centres undefined)

>  <growth [%]>
115

$$$$
>  <Compound>
Nc1ncc(-c2ccc3ncnc(N4CCc5ccc(Cl)cc54)c3c2)cc1C(F)(F)F

>  <growth [%]>
7.3

$$$$
>  <Compound>
COc1ccc(NC(=O)Nc2ccccc2CNc2nc(Nc3ccc(OCCN4CCCC4)cc3)ncc2Cl)cc1

>  <growth [%]>
1.65

$$$$
>  <Compound>
O=C1C(Nc2ccc(Cl)cc2)=C(I)C(=O)c2ncccc21

>  <growth [%]>
-45.9

$$$$
>  <Compound>
O=C1C=C(Nc2ccccc2)c2ncccc2C1=O

>  <growth [%]>
-76.6

$$$$

Problem: Endpoint output: growth of `Cc1ccc2[nH]c(=S)[nH]c(=O)c2c1` . Value?
Result: 117

Problem: # repeat for C=C(C)[C@@H]1CC[C@]2(C(=O)O)CC[C@]3(C)[C@H](CC[C@@H]4[C@@]5(C)CCC(N)C(C)(C)[C@@H]5CC[C@]43C)[C@@H]12 (some centres undefined)
Result: -21.4

Problem: What about this compound? `COc1cc(/C=C/C(=O)c2ccc(NC(=O)CSc3nnc(-c4cc(-c5ccccc5)nc5ccccc45)n3-c3ccccc3)cc2)cc(OC)c1OC`
Result: 86.4

Problem: Would you kindly repeat that for `Nc1n[nH]c2cccc(C#Cc3cccc(NC(=O)c4ccc(N5CCOCC5)c(C(F)(F)F)c4)c3)c12` ?
Result: -18.2

====

Test system: SF-539 CNS
Experiment: NCI-60 one-dose screen, 48 h (100 = growth as untreated, 0 = no growth, -100 = all killed)
Conditions: 10 µM unless noted
Compounds without any hit were thinned out: in the full panel of roughly 83,000, 20% have a hit.
Would you mind classing the entries by growth? Ranges: low class (below 50%), middle class (50% to below 80%), high class (80% or more)

>  <Compound>
O=c1oc2c(Br)cc(Br)cc2cc1-c1cc(-c2ccc(-c3cc(-c4cc5cc(Br)cc(Br)c5oc4=O)nc(-c4cc5cc(Br)cc(Br)c5oc4=O)c3)cc2)cc(-c2cc3cc(Br)cc(Br)c3oc2=O)n1

>  <Class Name>
high class

$$$$
>  <Compound>
O=C1/C(=C/c2ccc(F)c(F)c2)CN(C(=O)C(Cl)Cl)C/C1=C\c1ccc(F)c(F)c1

>  <Class Name>
low class

$$$$
>  <Compound>
COc1cc(Cl)cc(-c2nn(C(=O)NS(=O)(=O)c3ccc(Cl)cc3)cc2-c2ccncc2)c1

>  <Class Name>
low class

$$$$
>  <Compound>
C=C1C(=O)O[C@@H]2[C@H]3[C@H](COC(C)=O)[C@@H](OC(C)=O)C[C@H]3C(=C)[C@@H](O)C[C@@H]12

>  <Class Name>
high class

$$$$
>  <Compound>
OCc1cc(CN2CCCCC2)c(O)c2ncccc12

>  <Class Name>
middle class

$$$$
>  <Compound>
COc1cc(/C=C2\C(=O)N(CCCCn3c4ccccc4c(=O)c4ccccc43)c3ccccc32)cc(OC)c1O

>  <Class Name>
middle class

$$$$
>  <Compound>
CCN1C(=O)N(c2ccccc2)C2NC(=S)N(/N=C/C=C/c3ccccc3)C21 (stereo not given)

>  <Class Name>
low class

$$$$

Problem: Hello team, could you let me know which band the following compound falls into: `NNCCc1ccccc1`
Result: high class

====

Tested on: HT29 colon
Assay: NCI-60 one-dose screen, 48 h (100 = growth as untreated, 0 = no growth, -100 = all killed)
Conditions: 10 µM unless noted
Procedure: Growth inhibition of the HT29 human tumor cell line is measured as a screen for anti-cancer activity. Cells are grown in 96 well plates and exposed to the test compound for 48 hours. Compounds are tested at a single concentration, which is 10^-5 M for most compounds. The reported endpoint is percent growth (GI% or GIPRCNT), where numbers from 0 - 100% represent growth inhibition, and numbers from -100% - 0 represent cell death. For example, a value of 40 represents 60% growth inhibition. […]
About 83,000 compounds went through this panel and 20% of them were active in at least one assay; those are over-represented in the sample as a whole.
Values of growth strictly less than 60% map to Y, and values of at least 60% map to N.

See these solved cases before continuing.
>  <Molecule>
Cc1ccccc1SSc1ccccc1C

>  <Class Name>
Y

$$$$
>  <Molecule>
N#Cc1ccccc1-c1ccc(Cn2c(-c3cscn3)nc3c(Cl)cccc32)cc1

>  <Class Name>
N

$$$$
>  <Molecule>
Cc1ccc(-c2nc(C#N)c(S(=O)(=O)N(C)C)o2)cc1

>  <Class Name>
N

$$$$
>  <Molecule>
CC1(C)C(N)=Nc2cc(OCCCN3Cc4ccc(OCCc5cn(CC(=O)N6CCC(CCN7CCCC7)CC6)nn5)cc4C3)c(OCC3CC3)cc21

>  <Class Name>
N

$$$$
>  <Molecule>
N=C(N)SCc1c2ccccc2c(CSC(=N)N)c2ccccc12

>  <Class Name>
N

$$$$

Problem: # check: growth < 60% for `Cc1ccc(C(=O)c2ccc(CC(=O)N=Nc3c(O)[nH]c4ccc(OC(F)(F)F)cc34)n2C)cc1`
Result: N

Problem: // repeat for O=C(O)C1C2CCC1C(O)C2 (stereo not given) and report
Result: N

====

System: K-562 leukemia
Experiment: NCI-60 one-dose screen, 48 h (100 = growth as untreated, 0 = no growth, -100 = all killed)
Conditions: 10 µM unless noted
Compounds without any hit were thinned out: in the full panel of roughly 83,000, 20% have a hit.
As shown below, each of these compounds has a reported growth value.
Just the number please, in %, no unit attached.

Reference set (5 entries):
>  <Compound>
COc1cc(/C=C2\C(=O)N(CCCCn3c4ccccc4c(=O)c4ccccc43)c3ccccc32)cc(OC)c1O

>  <Units Label>
%

>  <growth>
15.6

$$$$
>  <Compound>
CC1(C)C(N)=Nc2cc(OCCCN3Cc4ccc(OCCc5cn(CC(=O)N6CCC(CCN7CCCC7)CC6)nn5)cc4C3)c(OCC3CC3)cc21

>  <Units Label>
%

>  <growth>
88

$$$$
>  <Compound>
O=C(Nc1ncc(Cc2cccc(C(F)(F)F)c2)s1)c1ccc(-n2cnnn2)cc1

>  <Units Label>
%

>  <growth>
21

$$$$
>  <Compound>
CCN(CC)CCOc1ccccc1C

>  <Units Label>
%

>  <growth>
97.5

$$$$
>  <Compound>
COc1ccc2c(c1)CC[C@@H]1[C@@H]2CC[C@]2(C)C3C(=CCC4C(=O)N(c5ccccc5)C(=O)C43)C[C@@H]12 (some centres undefined)

>  <Units Label>
%

>  <growth>
76.9

$$$$

Problem: Please provide the recorded growth for `CCC(=O)Oc1cc(Cl)c(Cl)cc1Cl` , tested on K-562 leukemia.
Result: 101

Problem: Proceed to CCOC(=O)CC1CSC(c2cccc(Cl)c2)=N1 (centres undefined)
Result: 92.9

Problem: Proceed to `Cc1ccc(NC(=O)N/C(N)=N/c2nc(=O)c3ccccc3s2)cc1`
Result: 57

Problem: Would you mind doing `Cn1cc(-c2nc3c(F)cc4[nH]ncc4c3c3c2CCCC3)c(C(F)F)n1` as well?
Result: 26

Problem: Again, but for CN1C(=O)N(C)C2(c3ccccc3)N(CC(=O)Nc3ccccc3O)C(=O)NC12c1ccccc1 (centres undefined)
Result: 101

Problem: Also, `CN(C)CCCn1c2c(c3ccc(N4CCNCC4)cc3c1=O)C(=O)c1ccccc1-2` please.
Result: -28.5

Problem: Same question, CCCCC(NC(=O)CN1C(=O)/C(=C/C(C)=C/c2ccccc2)SC1=S)C(=O)O (centres undefined) this time
Result: 107

Problem: Would you mind doing C/C=C(\C)C(=O)N[C@H]1CC[C@]2(C)C3CC[C@@]4(C)C(CC[C@@H]4C(C)N(C)C)C3CCC2[C@H]1OC(C)=O (some centres undefined) as well?
Result: 18

Problem: What do we get for `COc1ccc(CCNC(=O)COc2cc3c(Nc4ccc(F)c(Cl)c4)ncnc3cc2OC)cc1OC` ?
Result: 112

Problem: Can you handle `[2H]C([2H])([2H])Oc1cc(F)ccc1/C=C/C(=O)/C=C(/C=C/c1ccc(F)cc1OC([2H])([2H])[2H])OB(F)F` next?
Result: 18

Problem: Please give the result for `FC(F)(F)Sc1ccc(/C=C/c2cc(/C=C/c3ccc(SC(F)(F)F)cc3)n(-c3ccccc3)n2)cc1` too.
Result: 91

Problem: Check COc1cc(NC2CCCCC2O)c2nc(-c3ccc(Cl)cc3)ccc2c1 (centres undefined) too.
Result: 44.8

Problem: Next up: Nc1ncnc2c1C(c1ccc([N+](=O)[O-])cc1)c1sc3c(F)cccc3c1O2 (centres undefined)
Result: 83.4

Problem: Cool, now `CCC(=C(c1ccc(OCCCN(C)C)cc1)c1ccc(OCCCN(C)C)cc1)c1ccc(Cl)cc1`
Result: 0.345

Problem: How about this compound: `CCN(C(=O)N1CCN(c2cc3c(cc2F)c(=O)c(C(=O)O)cn3C2CC2)CC1)c1nc(-c2ccccc2)cs1`
Result: 13.8

Problem: Now this one: `CN(C)CCCn1c2nc(=O)[nH]c(=O)c-2nc2cc(Cl)c(Cl)cc21`
Result: 47.9

Problem: And the next one, Cc1cnc(C(=O)NNc2nc3sc4c(c3c(=O)[nH]2)C(C)CCC4)cn1 (centres undefined) ?
Result: 14

Problem: Please answer likewise for COc1ccc(C2=C(CN)C(O)NC(=NCC(=O)c3ccc4ccccc4c3)N2)cc1 (centres undefined)
Result: 102

Problem: What would you report for `O=C(Nc1ccc(F)cc1)c1cc2cc(Nc3nc(-c4ccccc4)nc4ccccc34)ccc2oc1=O` ?
Result: 102
